# test.context: in THF, 298.15 K
value.kind: solubility (mole fraction)
Would you mind answering with just the numeric figure?

### Prompt I would be grateful if you could share the reported solubility (mole fraction) for `CC(=O)Oc1ccc(C(c2ccc(OC(C)=O)cc2)c2ccccn2)cc1` .
### Response 0.0291

----------
# test.context: in isopropanol, 308.15 K
value.kind: solubility (mole fraction)
When you answer, write just the number.

### Prompt Any idea what solubility (mole fraction) was measured for `CC(=O)Oc1ccc(C(c2ccc(OC(C)=O)cc2)c2ccccn2)cc1` ?
### Response 0.000804

----------
# test.context: in NMP, 298.15 K
value.kind: solubility (mole fraction)
I only need the number, thanks.

### Prompt Endpoint output: solubility (mole fraction) of `CC(=O)Oc1ccc(C(c2ccc(OC(C)=O)cc2)c2ccccn2)cc1` . Value?
### Response 0.0768

These measurements were taken from BigSolDB 2.1.
